- Assay Method Text: protein stability index of a GFP-peptide fusion (yeast GPS) (PSI 1-4); higher = more stable; sorted into four equal gates, so the index is relative within each strain
- Condition Description: doa10∆
Decision: protein stability index compared against 3; not below it gives Criterion met, below it gives Criterion not met.

{"Seq Text": "ERKKSIGSQRGRRLSML [DSN1]", "Qualitative Label": "Criterion met"}
{"Seq Text": "IIRPILGKVRFANYKLL [SRB4]", "Qualitative Label": "Criterion not met"}
{"Seq Text": "DYNLRIYCYFLIMKLGR [SSN8]", "Qualitative Label": "Criterion not met"}
{"Seq Text": "KDQRATTPYMTKYERAR [RPO26]", "Qualitative Label": "Criterion not met"}
{"Seq Text": "KLEKLRNEKRMFLEFQS [SMC2]", "Qualitative Label": "Criterion not met"}
{"Seq Text": "FCPIVEEIVSNSSRFSD [YCS4]", "Qualitative Label": "Criterion not met"}
{"Seq Text": "FMHDPSVFYNIANMVLP [SIR2]", "Qualitative Label": "Criterion not met"}
{"Seq Text": "LDERGHEKIEDEDEDND [RPN4]", "Qualitative Label": "Criterion met"}
{"Seq Text": "LRLRGGIIEPSLKALAS [RPL40A]", "Qualitative Label": "Criterion met"}
{"Seq Text": "NSWFDVTWRTFTGDFLR [FAS1]", "Qualitative Label": "Criterion not met"}
{"Seq Text": "SMKANTSTNPNGLGTSH [ARP7]", "Qualitative Label": "Criterion met"}
{"Seq Text": "KTCQWYSEHLKPYDINV [DIS3]", "Qualitative Label": "Criterion not met"}
{"Seq Text": "KKQNLSSHQRVFKLSTN [SWP82]", "Qualitative Label": "Criterion not met"}

----------
Property: protein stability index; scope: individual sequences
- Assay Method Text: protein stability index of a GFP-peptide fusion (yeast GPS) (PSI 1-4); higher = more stable; sorted into four equal gates, so the index is relative within each strain
- Condition Description: san1∆

{"Seq Text": "VIVTDPRLDAQAIKEAS [RPS0B]", "protein stability index": 2.88}
{"Seq Text": "NLNELESQLQMDRTSLR [SMC3]", "protein stability index": 2.5}
{"Seq Text": "GSADIGASVISLTKDKS [SIR4]", "protein stability index": 2.92}
{"Seq Text": "TKESQPTIEEDLTRVYK [FAS2]", "protein stability index": 3.2}
{"Seq Text": "KLDQDDEIYIPINGNEA [CSI1]", "protein stability index": 3.19}
{"Seq Text": "PLPLDLNVQVWHIEETG [ITC1]", "protein stability index": 2.18}
{"Seq Text": "AGVVQDIGSDPTLPRSD [RPB9]", "protein stability index": 2.9}
{"Seq Text": "NLETLVTTKDDLSGADI [RPT2]", "protein stability index": 3.27}

----------
- Assay Method Text: protein stability index of a GFP-peptide fusion (yeast GPS) (PSI 1-4); higher = more stable; sorted into four equal gates, so the index is relative within each strain
- Condition Description: ubr1∆
Decision: protein stability index compared against 3; not below it gives true (1), below it gives false (0).

{"Seq Text": "FRGARKNKGLVVSPYDY [DIB1]", "Qualitative Label": "false (0)"}
{"Seq Text": "KEQTIQLPSKFTCSCNS [RPN14]", "Qualitative Label": "false (0)"}
{"Seq Text": "GIAIGLNKGKKVTSMTP [RPL36A]", "Qualitative Label": "true (1)"}
{"Seq Text": "LPDGKNGNLEEEFAYVD [MED6]", "Qualitative Label": "true (1)"}
{"Seq Text": "IEIEDEKVSSVLSALEG [RPP2A]", "Qualitative Label": "false (0)"}
{"Seq Text": "KKKDPVNQDKANNASQI [SNF12]", "Qualitative Label": "true (1)"}
{"Seq Text": "SGYGKRKGTREARLPSQ [RPL19A]", "Qualitative Label": "true (1)"}
{"Seq Text": "PNMSICIFGDAFDVDRA [RPL1A]", "Qualitative Label": "false (0)"}
{"Seq Text": "KRHRSSYYDNDLDETTQ [YML031W/NDC1]", "Qualitative Label": "false (0)"}
{"Seq Text": "HLGKGTMTMDVFNDAHV [RPN1]", "Qualitative Label": "false (0)"}
{"Seq Text": "EKSRISERDSKDRYING [YMR129W/POM152]", "Qualitative Label": "false (0)"}
{"Seq Text": "SDVLFEFTKINTPLVGA [YJL039C/NUP192]", "Qualitative Label": "false (0)"}
{"Seq Text": "MSGYDRALSIFSPDGHI [PRE6]", "Qualitative Label": "false (0)"}
{"Seq Text": "YKEQIIQGFYWAVKEGP [SNU114]", "Qualitative Label": "false (0)"}
{"Seq Text": "LESINEGNQIIVFVHSR [BRR2]", "Qualitative Label": "false (0)"}
{"Seq Text": "DEKGNEIKVGKQRFQGC [ARP9]", "Qualitative Label": "true (1)"}
{"Seq Text": "HESYCLPMDTNLFKINS [YMR129W/POM152]", "Qualitative Label": "false (0)"}
{"Seq Text": "SGQFYFRNPTPLLSNYA [RGR1]", "Qualitative Label": "false (0)"}
{"Seq Text": "RTNNVPMIKAEETPSKT [NUT1]", "Qualitative Label": "false (0)"}
{"Seq Text": "TADKIRIHAKNFEAALF [GAL11]", "Qualitative Label": "false (0)"}
{"Seq Text": "QIQFTPLIKKIKYEPRF [SMC3]", "Qualitative Label": "false (0)"}
{"Seq Text": "IKIFELKLPADATTWRY [IRR1]", "Qualitative Label": "false (0)"}
{"Seq Text": "SRYEPKVFDCGDNIVMS [PRE7]", "Qualitative Label": "false (0)"}
{"Seq Text": "AYELRTKSKEQLASQLV [RPL35A]", "Qualitative Label": "true (1)"}
{"Seq Text": "PRTLIGHRATVTDIAII [RPN14]", "Qualitative Label": "true (1)"}
{"Seq Text": "RKHKRVSPNAAPRQEIS [YAR002W/NUP60]", "Qualitative Label": "false (0)"}
{"Seq Text": "TSDPVMHKQLAYILAAQ [RPN1]", "Qualitative Label": "false (0)"}
{"Seq Text": "EEDVYLDPLARVSKDKK [FAS2]", "Qualitative Label": "true (1)"}
{"Seq Text": "VKLIVMLCTLTGYQNND [YJL039C/NUP192]", "Qualitative Label": "false (0)"}
{"Seq Text": "DDFMHSETREKELESID [RPB4]", "Qualitative Label": "true (1)"}
{"Seq Text": "LASKIKQYERLRFYKDT [RRI1]", "Qualitative Label": "false (0)"}
{"Seq Text": "LDPLTKDPVDFVRQAAM [RPN2]", "Qualitative Label": "false (0)"}
{"Seq Text": "AFNQVEIRPEMLGHYLG [RPS15]", "Qualitative Label": "true (1)"}
{"Seq Text": "LYENIASSPIILEEGSS [RPN10]", "Qualitative Label": "false (0)"}
{"Seq Text": "EGRSFTKAIEDAKKEMK [YLR335W/NUP2]", "Qualitative Label": "false (0)"}
{"Seq Text": "DYNLRIYCYFLIMKLGR [SSN8]", "Qualitative Label": "false (0)"}
{"Seq Text": "VQHDQILVMETSEEQTK [SWP82]", "Qualitative Label": "false (0)"}
{"Seq Text": "VLCTRLRLSNFFTIDHF [SIR2]", "Qualitative Label": "false (0)"}
{"Seq Text": "KLEKLRNEKRMFLEFQS [SMC2]", "Qualitative Label": "true (1)"}
{"Seq Text": "DKKSCSVDDVLSALDHI [DPB4]", "Qualitative Label": "true (1)"}
{"Seq Text": "NVRSSVLQKVIEWAEHH [SKP1]", "Qualitative Label": "false (0)"}
{"Seq Text": "VLKTLIEKFEQVPDSLD [RPN6]", "Qualitative Label": "true (1)"}
{"Seq Text": "SETDKRQFLHELRRPGV [RPO31]", "Qualitative Label": "false (0)"}
{"Seq Text": "QDQYKEGIKVVDIDDPD [SNF2]", "Qualitative Label": "false (0)"}
{"Seq Text": "DNPLRQIPHFNNKILEK [BRR2]", "Qualitative Label": "true (1)"}
{"Seq Text": "KKQPSILVGGTLKDYQI [SNF2]", "Qualitative Label": "false (0)"}
{"Seq Text": "VTLKGAKALESLASCLR [POP1]", "Qualitative Label": "false (0)"}
{"Seq Text": "TEGHKGHEELKRRIEEE [ISW2]", "Qualitative Label": "true (1)"}
{"Seq Text": "QKVSQLESADKQLEKRD [POP4]", "Qualitative Label": "true (1)"}
{"Seq Text": "SASVRALIENWAADSVS [FAS1]", "Qualitative Label": "false (0)"}
{"Seq Text": "VSGDLNPIHVSRHFASY [FAS1]", "Qualitative Label": "false (0)"}

Origin of the recorded values: the supplement of paper PMC9732359
